- target_of_assay: 5-HT2A receptor (Homo sapiens)
- Construct: host or cells: HEK293
- Sequence (P28223 whole entry): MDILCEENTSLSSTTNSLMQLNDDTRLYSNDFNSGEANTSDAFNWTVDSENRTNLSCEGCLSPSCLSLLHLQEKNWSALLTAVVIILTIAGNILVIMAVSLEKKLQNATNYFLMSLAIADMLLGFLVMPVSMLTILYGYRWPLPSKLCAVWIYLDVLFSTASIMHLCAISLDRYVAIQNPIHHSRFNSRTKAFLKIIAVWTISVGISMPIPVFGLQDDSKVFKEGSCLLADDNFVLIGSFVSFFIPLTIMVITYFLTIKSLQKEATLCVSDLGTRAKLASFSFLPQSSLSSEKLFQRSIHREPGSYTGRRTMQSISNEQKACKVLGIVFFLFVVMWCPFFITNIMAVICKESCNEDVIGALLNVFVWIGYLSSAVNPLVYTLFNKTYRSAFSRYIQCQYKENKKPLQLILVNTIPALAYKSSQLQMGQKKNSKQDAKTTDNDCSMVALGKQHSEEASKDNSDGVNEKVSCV
- procedure_summary: cell-based
- Assay type: cell-based
- protocol_conditions: Ca^2+ flux, agonist; read-out: 5-HT2A EC50
Exercise: state measured pEC50 for each of the molecules provided.
Lab note: report pEC50 as minus log10 of the concentration in molar units, number only.

Ask | Reported pEC50 for CCN(CC)C(=O)[C@@H]1C=C2c3cccc4[nH]cc(c34)C[C@H]2N(Cc2ccc(OC)cc2)C1 [Compound 19] : what is it?
Reply | 5.53

Ask | Entry CCC[C@@H](C)NC(=O)[C@H]1C=C2c3cccc4[nH]cc(c34)C[C@H]2N(C)C1 [Int17a] : reported pEC50 = ?
Reply | 6.37

Ask | Fill blank: measured pEC50 of the molecule CCN(CC)C(=O)[C@@H]1C=C2c3cccc4[nH]cc(c34)C[C@H]2N(Cc2ccccn2)C1 [Compound 22] is ____.
Reply | 6.13

Ask | # input molecule: CCN(CC)C(=O)[C@@H]1C=C2c3cccc4[nH]cc(c34)C[C@H]2N(CCc2cccc(OC)c2)C1 [Compound 20] ; wanted: its pEC50
Reply | 6.58

Ask | Fill in the blank: the reported pEC50 of CC[C@@H](C)NC(=O)[C@@H]1C=C2c3cccc4[nH]c(Br)c(c34)C[C@H]2N(C)C1 [Compound 43] is ____.
Reply | 6.93

Ask | // lookup pEC50 for CCN(CC)C(=O)[C@@H]1C=C2c3cccc4c3C(CN4)C[C@H]2N(C)C1 (mixture of isomers) [Compound 37]
Reply | 7.12

Ask | Item under review: CCN(CC)C(=O)[C@@H]1C=C2c3cccc4[nH]cc(c34)C[C@H]2N(CCC(F)(F)F)C1 [Compound 12] . Reported pEC50?
Reply | 7.28

Ask | Need pEC50 of CCCN1C[C@H](C(=O)NC(CC)CC)C=C2c3cccc4[nH]cc(c34)C[C@H]21 [Compound 6] , thanks.
Reply | 7.95

Ask | # query: pEC50 of entry CCCN1C[C@H](C(=O)N(CC)CC)C=C2c3cccc4[nH]c(Br)c(c34)C[C@H]21 [Compound 9]
Reply | 6.64

Ask | What does the data say about its pEC50? Entry: CCCN1C[C@H](C(=O)N(CC)CC)C=C2c3cccc4c3C(CN4)C[C@H]21 (mixture of isomers) [Compound 36]
Reply | 7.30

Ask | I would be grateful if you could share the reported pEC50 for CCN(CC)C(=O)[C@@H]1C=C2c3cccc4[nH]cc(c34)C[C@H]2N(CCc2ccccn2)C1 [Compound 23] .
Reply | 6.29

Ask | # query: pEC50 of entry CCC(CC)NC(=O)[C@H]1C=C2c3cccc4[nH]cc(c34)C[C@H]2N(C)C1 [Int14a]
Reply | 6.33

Ask | What does the record list as pEC50 for C=CCN1C[C@@H](C(=O)N[C@H](C)CC)C=C2c3cccc4[nH]cc(c34)C[C@H]21 [Compound 8a] ?
Reply | 6.40

Ask | Query (molecule): CCC[C@@H](C)NC(=O)[C@@H]1C=C2c3cccc4[nH]cc(c34)C[C@H]2N(C)C1 [Int17] ; field requested: pEC50
Reply | 8.01

Ask | pEC50 for C=CCN1C[C@H](C(=O)N[C@H](C)CC)C=C2c3cccc4[nH]cc(c34)C[C@H]21 [Compound 8] ?
Reply | 9.17

----------
- procedure_summary: Metabolic stability in human liver microsomes (HLM)
- Assay type: in vitro ADME
- protocol_conditions: both sexes, human, pooled human liver microsomes, pH 7.4, 0.50 mg protein per mL
- From the text: HLM Stability. Pooled HLM from adult male and female donors (Corning 452117) were used.
Use Condition met when the recorded microsomal CLint at 1 μM is no lower than 200 µL/min/mg; use Condition not met when it is lower.

Ask | For this molecule, is measured microsomal CLint at 1 μM 200 µL/min/mg or higher? CCCN1C[C@H](C(=O)NC(CC)CC)C=C2c3cccc4[nH]cc(c34)C[C@H]21
Reply | Condition met

Ask | Decide: microsomal CLint at 1 μM of CCN(CC)C(=O)[C@@H]1C=C2c3cccc4[nH]cc(c34)C[C@H]2N(CCF)C1 >= 200 µL/min/mg?
Reply | Condition not met

Ask | Check this molecule for microsomal CLint at 1 μM at or above 200 µL/min/mg: CCN(CC)C(=O)[C@@H]1C=C2c3cccc4[nH]cc(c34)C[C@H]2N(CCC(F)(F)F)C1
Reply | Condition not met

Ask | Reported microsomal CLint at 1 μM reaches at least 200 µL/min/mg for CCC(CC)NC(=O)[C@@H]1C=C2c3cccc4[nH]cc(c34)C[C@H]2N(C)C1 ?
Reply | Condition not met

Ask | Decide: is the reported value of microsomal CLint at 1 μM for CCN(CC)C(=O)[C@@H]1C=C2c3cccc4[nH]cc(c34)C[C@H]2N(Cc2ccccc2OC)C1 equal to or greater than 200 µL/min/mg?
Reply | Condition not met

Ask | Is the recorded value of microsomal CLint at 1 μM equal to or greater than 200 µL/min/mg for this molecule? CCCN1C[C@H](C(=O)N(CC)CC)C=C2c3cccc4c3C(CN4)C[C@H]21 (mixture of isomers)
Reply | Condition not met

Ask | Threshold query (microsomal CLint at 1 μM >= 200 µL/min/mg) on CCN(CC)C(=O)[C@@H]1C=C2c3cccc4[nH]cc(c34)C[C@H]2N(CCc2ccc(OC)cc2)C1
Reply | Condition met

----------
- target_of_assay: Alpha1A receptor (Homo sapiens)
- Sequence (P35348 whole entry): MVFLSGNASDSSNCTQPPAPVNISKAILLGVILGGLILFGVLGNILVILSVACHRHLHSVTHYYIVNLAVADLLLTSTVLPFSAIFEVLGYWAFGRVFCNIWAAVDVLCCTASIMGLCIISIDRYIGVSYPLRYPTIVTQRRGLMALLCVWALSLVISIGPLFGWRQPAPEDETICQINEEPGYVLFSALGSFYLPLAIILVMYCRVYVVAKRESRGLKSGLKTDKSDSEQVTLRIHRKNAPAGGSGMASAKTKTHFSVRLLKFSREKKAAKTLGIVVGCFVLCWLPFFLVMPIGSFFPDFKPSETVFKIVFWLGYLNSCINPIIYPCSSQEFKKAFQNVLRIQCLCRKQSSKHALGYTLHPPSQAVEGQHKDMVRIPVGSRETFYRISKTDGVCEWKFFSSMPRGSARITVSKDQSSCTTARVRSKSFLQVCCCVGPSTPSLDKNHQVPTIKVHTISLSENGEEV
- procedure_summary: FLIPR Ca^2+ flux agonist assay at Alpha1A
- Format: cell-based
- protocol_conditions: Ca^2+ flux, agonist; read-out: Alpha1A EC50
result_type: EC50

Ask | Recorded EC50 for CCN(CC)C(=O)[C@@H]1C=C2c3cccc4[nH]cc(c34)C[C@H]2N(Cc2ccccc2OC)C1 , please?
Reply | > 31.6 µM

Ask | // EC50 lookup, key: CCN(CC)C(=O)[C@@H]1C=C2c3cccc4[nH]cc(c34)C[C@H]2N(CCc2ccccc2OC)C1
Reply | > 31.6 µM

----------
- procedure_summary: Metabolic stability in rat liver microsomes (RLM)
- protocol_conditions: both, rat, pooled rat liver microsomes, pH 7.4
I'd be grateful if you could share measured microsomal CLint at 1 μM for these entries.
Numbers only here, please. The scale is µL/min/mg.

Ask | Returns the measured microsomal CLint at 1 μM for the input molecule. Input: CCC(CC)NC(=O)[C@H]1C=C2c3cccc4[nH]cc(c34)C[C@H]2N(C)C1 [Int14a]
Reply | 770

Ask | Given the entry CCN(CC)C(=O)[C@@H]1C=C2c3cccc4[nH]cc(c34)C[C@H]2N(Cc2ccccn2)C1 , report its measured microsomal CLint at 1 μM.
Reply | 105

Ask | I would be grateful if you could share the reported microsomal CLint at 1 μM for CC[C@@H](C)NC(=O)[C@@H]1C=C2c3cccc4[nH]cc(c34)C[C@H]2N(C)C1 .
Reply | 13.9

Ask | What does the data say about its microsomal CLint at 1 μM? Entry: CCN(CC)C(=O)[C@@H]1C=C2c3cccc4[nH]cc(c34)C[C@H]2N(CCc2ccccn2)C1
Reply | 332

Ask | Param item = CCN(CC)C(=O)[C@@H]1C=C2c3cccc4[nH]cc(c34)C[C@H]2N(CCc2cccc(OC)c2)C1 ; retrieve measured microsomal CLint at 1 μM.
Reply | 1150

Ask | Suppose we examine the molecule CCN(CC)C(=O)[C@@H]1C=C2c3cccc4[nH]cc(c34)C[C@H]2N(Cc2cccc(OC)c2)C1 ; what microsomal CLint at 1 μM value has been reported?
Reply | 263

Ask | Look at this molecule and give its reported microsomal CLint at 1 μM. C=CCN1C[C@@H](C(=O)N[C@H](C)CC)C=C2c3cccc4[nH]cc(c34)C[C@H]21
Reply | 835

Ask | Find the recorded microsomal CLint at 1 μM belonging to CC[C@@H](C)NC(=O)[C@@H]1C=C2c3cccc4[nH]cc(c34)C[C@H]2N(CC)C1 and report it.
Reply | 72

Ask | Quick check: microsomal CLint at 1 μM of CC[C@@H](C)NC(=O)[C@H]1C=C2c3cccc4[nH]cc(c34)C[C@H]2N(CC)C1 ?
Reply | 453

Ask | # input molecule: CCCN1C[C@@H](C(=O)N[C@H](C)CC)C=C2c3cccc4[nH]cc(c34)C[C@H]21 ; wanted: its microsomal CLint at 1 μM
Reply | 960

Ask | Which microsomal CLint at 1 μM is listed for CCCN1C[C@H](C(=O)N(CC)CC)C=C2c3cccc4[nH]cc(c34)C[C@H]21 ?
Reply | 85.4

Ask | # microsomal CLint at 1 μM lookup, item CCN(CC)C(=O)[C@@H]1C=C2c3cccc4[nH]cc(c34)C[C@H]2N(Cc2ccc(OC)cc2)C1
Reply | 139
